Data provenance: the Human Domainome abundance scans (Beltran et al. 2025)

B1: POU domain, class 3, transcription factor 2, residues 356 to 411; numbered along this chain, P20265 (parent)
chain: KKRTSIEVSVKGALESHFLKCPKPSAQEITSLADSLQLEKEVVRVWFCNRRQKEKR

Variants of: B1
Test: abundance fitness (aPCA) (normalised: wild type 0, dead -1); higher = more abundant; growth selection in yeast, the domain comes from the species named
Settings: Homo sapiens
experimental readout: abundance fitness

Example results:
INSERT INTO assay_data (input_sequence, experimental_readout, val) VALUES
  ('KKRTSIEVSVKGALEEHFLKCPKPSAQEITSLADSLQLEKEVVRVWFCNRRQKEKR', 'abundance fitness', -0.015),
  ('KMRTSIEVSVKGALESHFLKCPKPSAQEITSLADSLQLEKEVVRVWFCNRRQKEKR', 'abundance fitness', -0.072),
  ('KKRTSIRVSVKGALESHFLKCPKPSAQEITSLADSLQLEKEVVRVWFCNRRQKEKR', 'abundance fitness', -0.014);

Query :: Give its abundance fitness value. Item: `KKRTSIEVSVKGALESHFLKCPKPSAQEITSLADSLQLEKEVVRVWFCNQRQKEKR`
Result :: -0.161

Query :: Give its abundance fitness value. Item: `KKRTSIEVSVKGALESHFLKCPKLSAQEITSLADSLQLEKEVVRVWFCNRRQKEKR`
Result :: -0.936

Query :: Give its abundance fitness value. Item: `KKRTSIEVSVKGALESHFLKCPKPSAQEITSLADSLQLEKEVVRVWFCNRCQKEKR`
Result :: -0.442

Query :: Give its abundance fitness value. Item: `KKRTSTEVSVKGALESHFLKCPKPSAQEITSLADSLQLEKEVVRVWFCNRRQKEKR`
Result :: -0.111

Query :: Give its abundance fitness value. Item: `KKRTSIEVSVKGALESHFLKCPKPSAQEITSLADSLQLPKEVVRVWFCNRRQKEKR`
Result :: -0.244

Query :: Give its abundance fitness value. Item: `KKRTSQEVSVKGALESHFLKCPKPSAQEITSLADSLQLEKEVVRVWFCNRRQKEKR`
Result :: -0.226

Query :: Give its abundance fitness value. Item: `KKRTSIEVSVKGALESHFLKCPKPSAQEITSLADSLQLEKEVVRVGFCNRRQKEKR`
Result :: -0.92
